target: T1, PRAME peptide on HLA-A*24:02 (human, not fully specified (residue 6)); assay: SPR, equilibrium, 25 C; oxidised peptide; soluble, with an engineered disulfide between the constant domains
T1 peptide: PYLGQMINL
pKd: −log10 of the molar value. Where no end group is shown, it is not given here.
parameter measured: pKd

Can you look up the measured pKd of S6 (TCR) alpha TRAV21 CDR3: AVPNPSARQLT beta TRBV7-9 CDR3: ASSLEGQGVEQF for me?
3.62

Repeat with S10 (TCR) alpha TRAV27 CDR3: GAIWSTLGRLY beta TRBV5-6 CDR3: SSFKGVNQPQH
3.71
